src = patent EP1675557B1

# EXPERIMENT DESCRIPTION: in vitro
# MEASUREMENT SETUP: human, pbmcs or whole blood
REPORTED METRIC: viability at 0.1 µM (%)
Answers are plain numbers, in %.

MOLECULE: CC1C(=O)OC2C1CCC1(C)C(=O)C=CC(C)(O)C21 (centres unmarked) [Vulgarine, vulgarine]
UNIT ABBREV: %
viability at 0.1 µM: 102

Note to self: viability at 0.1 µM recorded for CC1C(=O)OC2C1CCC1(C)C(=O)CCC(C)(O)C21 (centres unmarked) [2,3-dihydrovulgarine] was 104

* * *

Please respond with reported viability at 1 µM for every item in the list.
# EXPERIMENT DESCRIPTION: in vitro
# MEASUREMENT SETUP: human, pbmcs or whole blood
Answers are plain numbers, in %.

COMPOUND: CC1C(=O)OC2C1CCC1(C)C(=O)C=CC(C)(O)C21 (centres unmarked)
viability at 1 µM / %: 119

Now, please, on to the next compound.
Note to self: viability at 1 µM recorded for CC1C(=O)OC2C1CCC1(C)C(=O)CCC(C)(O)C21 (centres unmarked) [2,3-dihydrovulgarine] was 105
